target: recombinant human GST-Syk (Homo sapiens (Human)); experiment: Homogeneous Time-Resolved Fluorescence (HTRF) assay for the recombinant human Syk enzyme; settings: 10-dose titration 10 μM to 0.508 nM; 25 μM ATP; values below lowest test concentration given as <0.508

compound: Cc1cc(Nc2nccc(C(C)C)n2)cc(-c2cnc([C@]3(O)CC[C@@H](C(=O)O)CC3)s2)c1 [Compound A, reference compound]
target: recombinant human GST-Syk (Homo sapiens (Human))
IC50: < 508 pM

compound: Cc1cc(Nc2nccc(C(F)(F)F)n2)cc(-c2cnc([C@]3(O)CCCc4cc(C(=O)O)ccc43)s2)c1
target: recombinant human GST-Syk (Homo sapiens (Human))
IC50: 1600 pM

compound: Cc1cc(Nc2nccc(C(F)(F)F)n2)cc(-c2cnc(C3(O)CCCc4cc(C(=O)O)ccc43)s2)c1 (racemic)
target: recombinant human GST-Syk (Homo sapiens (Human))
IC50: < 508 pM

compound: Cc1cc(Nc2nccc(C(F)(F)F)n2)cc(-c2cnc([C@@]3(O)CCCc4cc(C(=O)O)ccc43)s2)c1
target: recombinant human GST-Syk (Homo sapiens (Human))
IC50: < 508 pM

The reported numbers originate from patent US9624210B2.
